Reported Bromegrass, Downy plant response rating values for a set of compounds
# Tested on: downy brome
# Method Summary: Test C pre-/postemergence test
# Format: in vivo, Bromus tectorum
# Details: 62 g ai/ha, preemergence; scale 0 (no effect) to 100 (complete control)
Note: the reply should be a number with no unit written.

Consider the worked cases shown below.
{"Compound": "Cc1cc[n+]([O-])c(S(=O)(=O)Cc2c(C(F)(F)F)nn(C)c2OC(F)F)c1", "Value Measured": 40}
{"Compound": "Cc1cc[n+]([O-])c([S+]([O-])Cc2c(C(F)(F)F)nn(C)c2OC(F)F)c1 (centres unmarked)", "Value Measured": 50}
{"Compound": "Cn1nc(C(F)(F)F)c(CS(=O)(=O)c2cccc[n+]2[O-])c1OC(F)F", "Value Measured": 0}
{"Compound": "Cc1cc[n+]([O-])c(S(=O)(=O)C(C)c2c(C(F)(F)F)nn(C)c2OC(F)F)c1 (centres unmarked)", "Value Measured": 10}

Give Bromegrass, Downy plant response rating for Cn1nc(C(F)(F)F)c(C[S+]([O-])c2ccc(Br)c[n+]2[O-])c1OC(F)F (racemic)
50

----------
Reported Plant response rating, Dayflower values for a set of compounds
# Test system: Virginia dayflower
# Method Summary: Test F preemergence test
# Assay type: in vivo, Commelina virginica
# Details: 16 g ai/ha, preemergence; scale 0 to 100
Note: the reply should be a number with no unit written.

Consider the worked cases shown below.
{"Compound": "CC(c1c(C(F)(F)F)nn(C)c1OCC(F)(F)F)S(=O)(=O)c1cccc[n+]1[O-] (racemic)", "Plant response rating, Dayflower": 60}
{"Compound": "CCn1nc(C(F)(F)F)c(C[S+]([O-])c2cc(C)cc[n+]2[O-])c1OCC(F)(F)F (racemic)", "Plant response rating, Dayflower": 0}
{"Compound": "CCn1nc(C(F)(F)F)c(CS(=O)(=O)c2cc(C)cc[n+]2[O-])c1OCC(F)(F)F", "Plant response rating, Dayflower": 0}

Write Plant response rating, Dayflower of CC(Oc1c(C[S+]([O-])c2ccc(Cl)c[n+]2[O-])c(C(F)(F)F)nn1C)C(F)(F)F (centres unmarked) ; system used: Virginia dayflower
35

Write Plant response rating, Dayflower of Cc1cc[n+]([O-])c(S(=O)(=O)C(Cl)c2c(C(F)(F)F)nn(C)c2OCC(F)(F)F)c1 (racemic) ; system used: Virginia dayflower
0

----------
# Tested on: broadleaf signalgrass
# Method Summary: Test F preemergence test
# Format: in vivo, Brachiaria platyphylla
# Details: 125 g ai/ha, preemergence, scale 0 to 100
# From the text: Seeds of plant species selected from bermudagrass (Cynodon dactylon), Surinam grass (Brachiaria decumbens), large crabgrass (Digitaria sanguinalis), green foxtail (Setaria viridis), goosegrass (Eleusine indica), johnsongrass (Sorghum halepense), kochia (Kochia scoparia), pitted morningglory (Ipomoea lacunosa), purple nutsedge (Cyperus rotundus), common ragweed (Ambrosia elation), mustard (Brassica nigra), guineagrass (Panicum maximum), […] […]
Y means recorded Signalgrass plant response rating is 90 or above; N means it is below 90.

The examples below pair each entry with its known result.
{"Compound": "Cn1nc(C(F)(F)F)c(C[S+]([O-])c2ccc(F)c[n+]2[O-])c1OCC(F)(F)F (stereo not drawn)", "Group Label": "Y"}
{"Compound": "CCc1cc[n+]([O-])c(S(=O)(=O)Cc2c(C(F)(F)F)nn(C)c2OCC(F)(F)F)c1", "Group Label": "N"}
{"Compound": "CCn1nc(C(F)(F)F)c(CS(=O)(=O)c2cccc[n+]2[O-])c1OCC(F)(F)F", "Group Label": "Y"}

Kindly review the next compound as well.
Is Signalgrass plant response rating at least 90? Consider Cc1cc[n+]([O-])c(S(=O)(=O)C(Cl)c2c(C(F)(F)F)nn(C)c2OCC(F)(F)F)c1 (racemic)
Y

----------
Reported Plant response rating, Canarygrass values for a set of compounds
# Test system: canarygrass
# Method Summary: Test C postemergence test
# Assay type: in vivo, Phalaris minor
# Details: 250 g ai/ha, scale 0 to 100, 0 no effect, 100 complete control
Note: the reply should be a number with no unit written.

Consider the worked cases shown below.
{"Compound": "CCn1nc(C(F)(F)F)c(CS(=O)(=O)c2cc(C)cc[n+]2[O-])c1OCC(F)(F)F", "Plant response rating, Canarygrass": 10}
{"Compound": "Cn1nc(C(F)(F)F)c(C[S+]([O-])c2ccc(F)c[n+]2[O-])c1OC(F)F (stereo not shown)", "Plant response rating, Canarygrass": 0}
{"Compound": "Cn1nc(C(F)(F)F)c(C[S+]([O-])c2ccc(Cl)c[n+]2[O-])c1OC(F)F (stereo not shown)", "Plant response rating, Canarygrass": 10}

Consider the record given below.
Give Plant response rating, Canarygrass for CC(c1c(C(F)(F)F)nn(C)c1OC(F)F)S(=O)(=O)c1cccc[n+]1[O-] (stereo not shown)
0

----------
# Tested on: velvetleaf
# Method Summary: Test A pre-/postemergence greenhouse test
# Format: in vivo, Abutilon theophrasti
# Details: Preemergence, 125 g ai/ha; 0 to 100 scale, 0 no effect, 100 complete control
# Text: Seeds of barnyardgrass (Echinochloa crus-galli), crabgrass (Digitaria sanguinalis), giant foxtail (Setaria faberi), morningglory (Ipomoea spp.), redroot pigweed (Amaranthus retroflexus), velvetleaf (Abutilon theophrasti), wheat (Triticum aestivum), and corn (Zea mays) were planted into a blend of loam soil and sand and treated preemergence with a directed soil spray using test compounds formulated in a non-phytotoxic solvent mixture which included a surfactant. […]
The label Met is reserved for Velvetleaf plant response rating strictly under 10; Not met covers values equal to or above it.

The examples below pair each entry with its known result.
{"Molecule": "Cc1cc[n+]([O-])c([S+]([O-])Cc2c(C(F)(F)F)nn(C)c2OC(C)C(F)(F)F)c1 (stereo not shown) [Compound 88]", "Group Label": "Met"}
{"Molecule": "Cc1cc[n+]([O-])c([S+]([O-])Cc2c(C(F)(F)F)nn(C)c2Cl)c1 (racemic) [Compound 20]", "Group Label": "Met"}
{"Molecule": "CC(Oc1c(C[S+]([O-])c2cccc[n+]2[O-])c(C(F)(F)F)nn1C)C(F)(F)F (stereo not shown) [Compound 77]", "Group Label": "Not met"}
{"Molecule": "Cc1cc[n+]([O-])c([S+]([O-])Cc2c(C(F)(F)F)nn(C)c2OCC(F)(F)C(F)(F)F)c1 (stereo not shown) [Compound 90]", "Group Label": "Met"}
{"Molecule": "Cn1nc(C(F)(F)F)c(CS(=O)(=O)c2ccc(Br)c[n+]2[O-])c1OC(F)F [Compound 13]", "Group Label": "Met"}
{"Molecule": "Cn1nc(C(F)(F)F)c(C[S+]([O-])c2cc(Br)cc[n+]2[O-])c1Cl (racemic) [Compound 35]", "Group Label": "Not met"}
{"Molecule": "CCn1nc(C(F)(F)F)c(CS(=O)(=O)c2cccc[n+]2[O-])c1OCC(F)(F)F [Compound 63]", "Group Label": "Not met"}

Kindly review the next molecule as well.
Determine whether this molecule shows Velvetleaf plant response rating lower than 10 (ties excluded): CC(c1c(C(F)(F)F)nn(C)c1Cl)[S+]([O-])c1cccc[n+]1[O-] (mixture of isomers) [Compound 27]
Not met

----------
Reported Plant response rating, Ryegrass, Italian values for a set of compounds
# Test system: Italian ryegrass
# Method Summary: Test F preemergence test
# Type: in vivo, Lolium multiflorum
# Details: Preemergence; 31 g ai/ha; scale 0 to 100
Note: the reply should be a number with no unit written.

Consider the worked cases shown below.
{"Compound": "CCn1nc(C(F)(F)F)c(C[S+]([O-])c2cc(C)cc[n+]2[O-])c1OCC(F)(F)F (racemic) [Compound 66]", "Plant response rating, Ryegrass, Italian": 50}
{"Compound": "CCn1nc(C(F)(F)F)c(CS(=O)(=O)c2cccc[n+]2[O-])c1OCC(F)(F)F [Compound 63]", "Plant response rating, Ryegrass, Italian": 60}
{"Compound": "Cc1cc[n+]([O-])c(S(=O)(=O)Cc2c(C(F)(F)F)nn(C)c2Cl)c1 [Compound 19]", "Plant response rating, Ryegrass, Italian": 10}

Write Plant response rating, Ryegrass, Italian of Cn1nc(C(F)(F)F)c(CS(=O)(=O)c2cccc[n+]2[O-])c1OC(F)F [Compound 4] ; system used: Italian ryegrass
65

Write Plant response rating, Ryegrass, Italian of CC(c1c(C(F)(F)F)nn(C)c1OC(F)F)S(=O)(=O)c1cccc[n+]1[O-] (centres unmarked) [Compound 5] ; system used: Italian ryegrass
60

Write Plant response rating, Ryegrass, Italian of Cn1nc(C(F)(F)F)c(C[S+]([O-])c2ccc(Cl)c[n+]2[O-])c1OCC(F)F (centres unmarked) [Compound 85] ; system used: Italian ryegrass
65

Write Plant response rating, Ryegrass, Italian of Cn1nc(OC(F)F)c(CS(=O)(=O)c2cccc[n+]2[O-])c1C(F)(F)F [Compound 80] ; system used: Italian ryegrass
20

Write Plant response rating, Ryegrass, Italian of Cc1cc([S+]([O-])Cc2c(C(F)(F)F)nn(C)c2OCC(F)(F)F)[n+]([O-])cc1Cl (centres unmarked) [Compound 70] ; system used: Italian ryegrass
75
